molecular target: B-Raf (V600E)-kinase (Homo sapiens, UniProt P15056, V600E); test: Kinase test B-Raf (V600E); assay type: biochemical; settings: compound concentration 2 μM; 100% = no inhibition, 0% = total inhibition; read-out: % CTL (residual activity of the enzyme relative to DMSO control)
Sequence (P15056 whole entry V600E): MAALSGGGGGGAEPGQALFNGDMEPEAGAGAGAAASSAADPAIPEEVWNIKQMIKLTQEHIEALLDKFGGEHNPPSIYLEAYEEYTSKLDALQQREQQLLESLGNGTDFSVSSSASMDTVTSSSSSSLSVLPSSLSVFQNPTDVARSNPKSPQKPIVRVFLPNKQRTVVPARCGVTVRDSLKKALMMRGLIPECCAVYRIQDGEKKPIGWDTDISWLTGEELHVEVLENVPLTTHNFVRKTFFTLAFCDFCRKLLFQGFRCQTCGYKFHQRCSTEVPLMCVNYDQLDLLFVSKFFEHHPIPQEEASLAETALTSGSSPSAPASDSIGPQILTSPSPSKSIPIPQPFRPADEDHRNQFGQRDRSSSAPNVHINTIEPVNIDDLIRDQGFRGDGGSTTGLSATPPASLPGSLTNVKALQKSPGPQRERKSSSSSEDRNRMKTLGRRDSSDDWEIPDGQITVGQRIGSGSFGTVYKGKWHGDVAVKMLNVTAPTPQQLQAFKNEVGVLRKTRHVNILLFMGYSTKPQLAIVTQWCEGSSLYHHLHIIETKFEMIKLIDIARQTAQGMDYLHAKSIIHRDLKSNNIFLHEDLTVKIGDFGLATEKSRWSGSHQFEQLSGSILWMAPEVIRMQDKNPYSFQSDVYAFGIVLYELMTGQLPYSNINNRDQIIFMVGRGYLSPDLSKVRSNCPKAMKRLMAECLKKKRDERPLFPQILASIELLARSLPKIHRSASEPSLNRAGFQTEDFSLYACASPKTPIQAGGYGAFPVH
RESULT_TYPE: remaining activity at 2 µM (%)

Some solved cases for reference:
Cc1ncc(NC(=O)c2cccc(C(C)(C)C#N)c2)cc1-n1cc(-c2cncc(N3CCN(C)CC3)c2)nn1
0.8
Cc1ncc(NC(=O)c2cccc(C(C)(C)C#N)c2)cc1-n1cc(-c2cncc(CN3CCCC3)c2)nn1
0.9

(a) Cc1ncc(C(=O)Nc2cc(C3=CCN(CC4CC4)CC3)c(C)c(C(F)(F)F)c2)cc1-n1cc(-c2cnn(C)c2C)nn1
(b) Cc1ncc(NC(=O)c2cc(OC(F)(F)F)cc(N3CCN(C)CC3)c2)cc1-n1cc(-c2cccnc2)nn1
(c) Cc1ncc(C(=O)Nc2cc(C(C)(C)C)on2)cc1-n1cc(-c2cncc(CN3CCN(C)CC3)c2)nn1
// sort entries: remaining activity at 2 µM, high to low Reply with the item labels sorted in the order that was asked for.
a, c, b
(a: 3%, c: 1.5%, b: 0.9%)

* * *

target: B-Raf (V600E)-kinase (Homo sapiens, UniProt P15056, V600E); experiment: Kinase test B-Raf (V600E); assay type: biochemical; conditions: compound concentration 2 μM; 100% = no inhibition, 0% = total inhibition; read-out: % CTL (residual activity of the enzyme relative to DMSO control)
RESULT_TYPE: remaining activity at 2 µM (%)

Worked examples, 2 compounds total:
Cc1ncc(C(=O)Nc2cc(N3CCOCC3)cc(C(F)(F)F)c2)cc1-n1cc(-c2cnn(C)c2C)nn1
2.8
COc1c(CNC(C)C)cc(C(F)(F)F)cc1NC(=O)c1cnc(C)c(-n2cc(-c3cnn(C)c3C)nn2)c1
2.3

(I) Cc1ncc(C(=O)Nc2cc(C(C)(C)C)on2)cc1-n1cc(-c2cncc(N3CCC(N4CCCCC4)CC3)c2)nn1
(II) CCN1CCN(c2cc(C(F)(F)F)cc(NC(=O)c3cnc(C)c(-n4cc(-c5cnn(C)c5C)nn4)c3)c2C)CC1
For the pair I and II , which member has the lower remaining activity at 2 µM number? Please reply using the label of the selected record.
II
(II: 1.7%, I: 2.5%)

* * *

target: B-Raf (V600E)-kinase (Homo sapiens, UniProt P15056, V600E); assay: Kinase test B-Raf (V600E); format: biochemical; details: compound concentration 2 μM; 100% = no inhibition, 0% = total inhibition; read-out: % CTL (residual activity of the enzyme relative to DMSO control)
RESULT_TYPE: remaining activity at 2 µM (%)

Solved entries:
Cc1ncc(C(=O)Nc2cc(C(C)(C)C)on2)cc1-n1cc(-c2cncc(CN3CC[C@@H](F)C3)c2)nn1
1.9
C=CCN1CCN(c2cncc(-c3cn(-c4cc(C(=O)Nc5cc(C(C)(C)C)on5)cnc4C)nn3)c2)CC1
8.1
CCN1CCN(c2cc(NC(=O)c3cnc(C)c(-n4cc(-c5cncc(C#N)c5)nn4)c3)cc(C(F)(F)F)c2C)CC1
6.2
Cc1ncc(NC(=O)c2cc(N3CCN(C)CC3)c(F)c(C(F)(F)F)c2)cc1-n1cc(-c2cnn(C)c2C)nn1
1.8
CCN1CCN(c2cc(NC(=O)c3cnc(C)c(-n4cc(-c5ccc(NC(C)=O)nc5)nn4)c3)cc(C(F)(F)F)c2C)CC1
2

(I) Cc1ncc(C(=O)Nc2cc(CN3CCCC3)cc(C(F)(F)F)c2)cc1-n1cc(-c2cncs2)nn1
(II) Cc1ncc(C(=O)Nc2cc(C(C)(C)C)on2)cc1-n1cc(-c2cncc(N3CCN(C4CC4)CC3)c2)nn1
Given I and given II , which shows the smaller recorded remaining activity at 2 µM? Output the label that corresponds to your choice.
I
(I: 5.8%, II: 8.9%)

(1) Cc1ncc(C(=O)Nc2cc(N3CCCCC3)c(C)c(C(F)(F)F)c2)cc1-n1cc(-c2cnn(C)c2C)nn1
(2) Cc1ncc(C(=O)Nc2cc(C(C)(C)C)on2)cc1-n1cc(-c2cncc(CN3CC[C@H](F)C3)c2)nn1
(3) Cc1ncc(NC(=O)c2cc(NCCN(C)C)cc(OC(F)(F)F)c2)cc1-n1cc(-c2cnn(C)c2C)nn1
(4) Cc1ncc(NC(=O)c2cccc(C(C)(C)C#N)c2)cc1-n1cc(-c2cncc(CN(C)C)c2)nn1
I would appreciate it if you could sort these 4 molecules by remaining activity at 2 µM, starting from the smallest number. The reply should contain the labels ordered as requested.
4, 3, 2, 1

(P) Cc1ncc(C(=O)Nc2cc(N3CC[C@H](N(C)C)C3)cc(C(F)(F)F)c2)cc1-n1cc(-c2cnn(C)c2C)nn1
(Q) Cc1ncc(C(=O)Nc2cc(N(C)CCN(C)C)cc(C(F)(F)F)c2)cc1-n1cc(-c2cnn(C)c2C)nn1
(R) Cc1ncc(NC(=O)c2cccc(C(C)(C)C#N)c2)cc1-n1cc(-c2cncc(CO)c2)nn1
# sort list by recorded remaining activity at 2 µM, greatest to least Answer format: the labels, ordered as requested.
Q, R, P
(Q: 7.2%, R: 3.8%, P: 1.9%)
